biological target: CBL-B (Homo sapiens, UniProt Q13191); construct: GST; assay: CBL-B TR-FRET IC50 screening (E1/E2 ubiquitination, Biotin-Ubiquitin, Anti GST-Tb donor / Streptavidin-d2 acceptor); format: biochemical; conditions: CBL-B 10 nM final; 11-point titration from 100 uM; binned A-F; read-out: CBL-B TR-FRET activity IC50
Sequence (Q13191 whole entry): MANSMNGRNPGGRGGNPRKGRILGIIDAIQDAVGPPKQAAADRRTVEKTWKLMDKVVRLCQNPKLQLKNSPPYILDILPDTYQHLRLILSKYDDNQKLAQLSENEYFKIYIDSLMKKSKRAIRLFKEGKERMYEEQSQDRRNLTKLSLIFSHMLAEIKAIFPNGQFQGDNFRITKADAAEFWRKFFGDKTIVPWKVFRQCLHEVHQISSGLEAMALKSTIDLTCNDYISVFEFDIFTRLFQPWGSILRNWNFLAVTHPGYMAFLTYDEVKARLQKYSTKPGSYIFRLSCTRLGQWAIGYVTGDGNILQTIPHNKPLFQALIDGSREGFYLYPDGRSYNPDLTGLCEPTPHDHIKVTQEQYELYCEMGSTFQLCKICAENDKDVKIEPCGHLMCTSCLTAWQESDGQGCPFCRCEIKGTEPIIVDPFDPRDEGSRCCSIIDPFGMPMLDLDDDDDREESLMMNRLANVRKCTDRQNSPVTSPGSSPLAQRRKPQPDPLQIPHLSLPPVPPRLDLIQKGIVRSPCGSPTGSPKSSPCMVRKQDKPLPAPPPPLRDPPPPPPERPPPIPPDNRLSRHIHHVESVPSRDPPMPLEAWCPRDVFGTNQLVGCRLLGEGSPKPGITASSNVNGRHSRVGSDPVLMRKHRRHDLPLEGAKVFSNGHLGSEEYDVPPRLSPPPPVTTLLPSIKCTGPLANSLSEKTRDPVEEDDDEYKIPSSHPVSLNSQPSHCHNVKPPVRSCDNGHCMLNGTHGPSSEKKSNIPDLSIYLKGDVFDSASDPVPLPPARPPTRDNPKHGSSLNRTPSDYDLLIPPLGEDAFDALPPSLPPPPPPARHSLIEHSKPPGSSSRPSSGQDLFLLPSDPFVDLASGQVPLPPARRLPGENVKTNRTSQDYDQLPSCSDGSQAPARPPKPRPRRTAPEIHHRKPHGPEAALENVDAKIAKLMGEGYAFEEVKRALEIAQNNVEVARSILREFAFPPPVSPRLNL
# key: entry, value: IC50

>>> reported("C[C@H]1CN(Cc2cc(C(F)(F)F)c3cn(-c4cccc(C5(Cc6nncn6C)COC5)c4)c(=O)n3c2)CCC1(F)F [Compound 73]")
"3000 to 10000 nM"

Reported IC50 of Cn1cnnc1[C@H](c1cccc(-n2cc3c(C(F)(F)F)cc(CN4CCC5(CC5)C4)cn3c2=O)c1)C1CCC1 (single isomer, unassigned) [Compound 162] : 1000 to 3000 nM

Reported IC50 of Cc1c[nH]nc1[C@H](c1cccc(-n2cc3c(C(F)(F)F)cc(CN4CCC[C@H](C)C4)cn3c2=O)c1)C1COC1 [Compound 280] : > 10000 nM

###

molecular target: CBL-B (Homo sapiens, UniProt Q13191); construct: GST; assay: CBL-B TR-FRET IC50 screening (E1/E2 ubiquitination, Biotin-Ubiquitin, Anti GST-Tb donor / Streptavidin-d2 acceptor); type: biochemical; conditions: CBL-B 10 nM final; 11-point titration from 100 uM; binned A-F; read-out: CBL-B TR-FRET activity IC50
pIC50: −log10 of the molar value.
property: pIC50

These recorded examples may help you get a feel for the data.
>>> reported("CC(c1cc(C(F)(F)F)c2cn(-c3cccc(C4(Cc5nncn5C)COC4)c3)c(=O)n2c1)N1CCC[C@H](C)C1 (single isomer, unassigned) [Compound 119]")
"> 7.00"
>>> reported("C[C@H]1CCCN([C@@H](c2cc(C(F)(F)F)c3cn(-c4cccc([C@@H](c5nncn5C)C5CCC5)c4)c(=O)n3c2)C(F)(F)F)C1 (single isomer, unassigned)")
"< 5.00"
>>> reported("Cc1conc1CC1(c2cccc(-n3cc4c(C(F)(F)F)cc(Br)cn4c3=O)c2)COC1")
"6.52 to 7.00"
>>> reported("C[C@H](Cc1nncn1C)c1cccc(-n2cc3c(C(F)(F)F)cccn3c2=O)c1")
"6.00 to 6.52"
>>> reported("Cn1cnnc1CC1(c2cccc(-n3cc4c(C=O)cccn4c3=O)c2)COC1")
"5.00 to 5.52"

Reported pIC50 of O=c1n(-c2cccc(C3(Cc4nnc5n4CCC5)COC3)c2)cc2c(C(F)(F)F)cccn12 : < 5.00

Reported pIC50 of Cn1cnnc1[C@]1(c2cccc(-n3cc4c(C(F)(F)F)cc(CN5CCC(C)(F)CC5)cn4c3=O)c2)C[C@@H](C)C1 (single isomer, unassigned) : > 7.00

Reported pIC50 of [2H]C([2H])([2H])n1cnnc1[C@]1(c2cccc(-n3cc4c(C(F)(F)F)cc(CN5CCC[C@H](C)C5)cn4c3=O)c2)C[C@@H](C)C1 (single isomer, unassigned) : > 7.00

Reported pIC50 of Cn1cnnc1[C@]1(c2cccc(-n3cc4c(C(F)(F)F)cc(CN5CCC(C)(F)CC5)cn4c3=O)c2)C[C@H](C)C1 (single isomer, unassigned) : > 7.00

Reported pIC50 of Cc1c[nH]nc1C1(c2cccc(-n3cc4c(C(F)(F)F)cc(CN5CCO[C@H](C)C5)cn4c3=O)c2)CC2(CC2)C1 : 6.00 to 6.52

Reported pIC50 of Cn1cnnc1[C@H](F)C1(c2cccc(-n3cc4c(C(F)(F)F)cc(CN5CCC(F)CC5)cn4c3=O)c2)COC1 (single isomer, unassigned) : > 7.00

Reported pIC50 of Cn1cnnc1CC1(c2cccc(-n3cc4c(C(F)(F)F)cc(CNCC5CCCO5)cn4c3=O)c2)COC1 (stereo not drawn) : > 7.00

###

target: CBL-B (Homo sapiens, UniProt Q13191); construct: GST; assay: CBL-B TR-FRET IC50 screening (E1/E2 ubiquitination, Biotin-Ubiquitin, Anti GST-Tb donor / Streptavidin-d2 acceptor); assay type: biochemical; conditions: CBL-B 10 nM final; 11-point titration from 100 uM; binned A-F; read-out: CBL-B TR-FRET activity IC50
property: IC50

>>> reported("C[C@H]1CCCN(Cc2cc(C(F)(F)F)c3cn(-c4cc([C@H](c5nncn5C)C5CCC5)cc(C(F)(F)F)c4)c(=O)n3c2)C1 (single isomer, unassigned)")
"> 10000 nM"
>>> reported("Cn1cnnc1[C@@H](c1cccc(-n2cc3c(C(F)(F)F)cc(CN4CC(Oc5ccc(Cl)cc5)C4)cn3c2=O)c1)C1CCC1")
"< 100 nM"

Now turn to the next compound.
Reported IC50 of C[C@H]1CCCN(Cc2cc(C(F)(F)F)c3cn(-c4cc([C@@H](c5nncn5C)C5CCC5)cc(C(F)(F)F)c4)c(=O)n3c2)C1 (single isomer, unassigned) : < 100 nM

###

# key: entry, value: pIC50
target: CBL-B (Homo sapiens, UniProt Q13191); construct: GST; assay: CBL-B TR-FRET IC50 screening (E1/E2 ubiquitination, Biotin-Ubiquitin, Anti GST-Tb donor / Streptavidin-d2 acceptor); assay type: biochemical; conditions: second part of Table 2 (head 'Patent Cmpd No / Updated Activity'); same CBL-B TR-FRET IC50 bins A-F; read-out: Updated Activity
pIC50: −log10 of the molar value.

These recorded examples may help you get a feel for the data.
>>> reported("Cn1cnnc1[C@H](c1cc(F)cc(-n2cc3c(C(F)(F)F)cc(CN4CC(F)(F)C4)cn3c2=O)c1)C1CCC1 (single isomer, unassigned)")
"< 5.00"
>>> reported("CN1CCN(Cc2cc(C(F)(F)F)c3cn(-c4cccc([C@H](c5nncn5C)C5CCC5)c4)c(=O)n3c2)C1=O")
"> 7.00"
>>> reported("CO[C@H]1C[C@](c2cccc(-n3cc4c(C(F)(F)F)cc([C@@H](C)N5CCC[C@H](C)C5)cn4c3=O)c2)(c2nncn2C)C1 (single isomer, unassigned)")
"> 7.00"
>>> reported("C[C@H](c1cc(C(F)(F)F)c2cn(-c3cccc([C@H](c4nncn4C)C4CCC4)c3)c(=O)n2c1)N1CC[C@@H](F)C1 (single isomer, unassigned)")
"> 7.00"
>>> reported("CCn1cnnc1[C@@H](c1cccc(-n2cc3c(C(F)(F)F)cc(CN4CCC[C@H](C)C4)cn3c2=O)c1)C1CCC1 (single isomer, unassigned)")
"< 5.00"

Now turn to the next molecule.
Reported pIC50 of C[C@H]1CCCN(Cc2cc(C(F)(F)F)c3cn(-c4cncc([C@H](c5nncn5C)C5CCC5)c4)c(=O)n3c2)C1 : 5.00 to 5.52

###

# key: entry, value: IC50
target: CBL-B (Homo sapiens, UniProt Q13191); construct: GST; experiment: CBL-B TR-FRET IC50 screening (E1/E2 ubiquitination, Biotin-Ubiquitin, Anti GST-Tb donor / Streptavidin-d2 acceptor); type: biochemical; conditions: second part of Table 2 (head 'Patent Cmpd No / Updated Activity'); same CBL-B TR-FRET IC50 bins A-F; read-out: Updated Activity

>>> reported("Cn1cnnc1[C@@H](c1cccc(-n2cc3c(C(F)(F)F)cc(CN4CC(C)(C#N)C4)cn3c2=O)c1)C1CCC1 [Compound 564]")
"< 0.1 µM"
>>> reported("Cn1cnnc1[C@@H](c1cccc(-n2cc3c(C(F)(F)F)cc(CN4CCC5(CCO5)CC4)cn3c2=O)c1)C1CCC1 [Compound 524]")
"< 0.1 µM"
>>> reported("Cn1cnnc1[C@@H](c1cc(C#N)cc(-n2cc3c(C(F)(F)F)cc(CN4CC5(CC5)C4)cn3c2=O)c1)C1CCC1 (single isomer, unassigned) [Compound 557]")
"> 10 µM"

Reported IC50 of Cn1cnnc1[C@@H](c1cc(-c2ccncn2)cc(-n2cc3c(C(F)(F)F)cccn3c2=O)c1)C1CCC1 (single isomer, unassigned) [Compound 442] : > 10 µM

Reported IC50 of Cc1cnnn1[C@H](c1cccc(-n2cc3c(C(F)(F)F)cc(CN4CCC[C@H](C)C4)cn3c2=O)c1)C1CCC1 (single isomer, unassigned) [Compound 582] : > 10 µM

Reported IC50 of Cc1cnnn1[C@@H](c1cccc(-n2cc3c(C(F)(F)F)cc(CN4CCC[C@H](C)C4)cn3c2=O)c1)C1CCC1 (single isomer, unassigned) [Compound 583] : 3 to 10 µM

###

target: CBL-B (Homo sapiens, UniProt Q13191); construct: GST; assay: CBL-B TR-FRET IC50 screening (E1/E2 ubiquitination, Biotin-Ubiquitin, Anti GST-Tb donor / Streptavidin-d2 acceptor); type: biochemical; details: second part of Table 2 (head 'Patent Cmpd No / Updated Activity'); same CBL-B TR-FRET IC50 bins A-F; read-out: Updated Activity
pIC50: −log10 of the molar value.
property: pIC50

These recorded examples may help you get a feel for the data.
>>> reported("C[C@H]1CCN1Cc1cc(C(F)(F)F)c2cn(-c3cccc([C@H](c4nncn4C)C4CCC4)c3)c(=O)n2c1")
"> 7.00"
>>> reported("CN(CCC(=O)O)Cc1cc(C(F)(F)F)c2cn(-c3cccc([C@H](c4nncn4C)C4CCC4)c3)c(=O)n2c1")
"> 7.00"

Now turn to the next compound.
Sample C[C@H]1CCCN(Cc2cc(C(F)(F)F)c3cn(-c4cccc([C@H](c5nncn5C)[C@H]5C[C@@](C)(O)C5)c4)c(=O)n3c2)C1 (single isomer, unassigned) , system: CBL-B (Homo sapiens, UniProt Q13191). Its pIC50 is < 5.00

FYI, the data here is from patent US20240228482A1.
